Test system: CHLA-266
ASSAY_DETAILS: Anti-proliferative activity against human CHLA-266 cells assessed as cell viability incubated for 144 hrs by MTT assay
Assay type: functional, cell-based
TEST_CONTEXT: CHLA-266, 144 h
Could you please report measured pIC50 for the items listed next?
One number for each entry, as −log10 of the molar value.

SUBSTANCE_SMILES: COc1cc(-c2cn(C)c(=O)c3cnccc23)c(OC)cc1CN(C)C
MEASUREMENT_NAME: pIC50
REPORTED_RESULT: 4.47

pIC50 lookup needed for CCn1cc(-c2cccc(C(F)(F)F)c2)c2sc(C(=N)NC3CCS(=O)(=O)CC3)cc2c1=O , thanks.
4.61

###

Test system: G-401
ASSAY_DETAILS: Anti-proliferative activity against human G-401 cells assessed as cell viability incubated for 144 hrs by MTT assay
Type: functional, cell-based
TEST_CONTEXT: G-401, 144 h
MEASUREMENT_NAME: IC50
A complete answer gives the number followed by the unit.

SUBSTANCE_SMILES: CCn1cc(-c2cccc(C(F)(F)F)c2)c2sc(C(=N)NC3CCS(=O)(=O)CC3)cc2c1=O
MEASUREMENT_NAME: IC50
REPORTED_RESULT: 6.1 µM

Now for another entry.
Find the recorded IC50 belonging to COc1cc(-c2cn(C)c(=O)c3cnccc23)c(OC)cc1CN(C)C and report it.
10.8 µM

###

System: CHLA-266
ASSAY_DETAILS: Anti-proliferative activity against human CHLA-266 cells assessed as cell viability incubated for 72 hrs by MTT assay
Assay type: functional, cell-based
TEST_CONTEXT: CHLA-266, 72 h
MEASUREMENT_NAME: IC50 (µM)
One number for each entry, in µM.

# value lookup — system CHLA-266, readout IC50, item CCn1cc(-c2cccc(C(F)(F)F)c2)c2sc(C(=N)NC3CCS(=O)(=O)CC3)cc2c1=O
13.3

###

Test system: BT-12
ASSAY_DETAILS: Anti-proliferative activity against human BT-12 cells assessed as inhibition cell growth incubated for 72 hrs in presence of carboplatin by MTT-based Chou-Talalay method
Type: functional
TEST_CONTEXT: BT-12, 72 h
MEASUREMENT_NAME: IC50 (µM)
Numbers only, in µM.

Please give the measured IC50 for this compound: CCn1cc(-c2cccc(C(F)(F)F)c2)c2sc(C(=N)NC3CCS(=O)(=O)CC3)cc2c1=O
40.9

###

Test system: BT-12
ASSAY_DETAILS: Anti-proliferative activity against human BT-12 cells assessed as cell viability incubated for 72 hrs by MTT assay
Type: functional, cell-based
TEST_CONTEXT: BT-12, 72 h
MEASUREMENT_NAME: IC50 (µM)
Give bare numbers, in µM.

Recorded IC50 of CCn1cc(-c2cccc(C(F)(F)F)c2)c2sc(C(=N)NC3CCS(=O)(=O)CC3)cc2c1=O , please.
21.2

###

System: G-401
ASSAY_DETAILS: Anti-proliferative activity against human G-401 cells assessed as inhibition cell growth incubated for 72 hrs in presence of carboplatin by MTT-based Chou-Talalay method
Format: functional
TEST_CONTEXT: G-401, 72 h
MEASUREMENT_NAME: IC50 (µM)
Give bare numbers, in µM.

Record lookup: for G-401, what IC50 belongs to CCn1cc(-c2cccc(C(F)(F)F)c2)c2sc(C(=N)NC3CCS(=O)(=O)CC3)cc2c1=O ?
9.1

###

Test system: BT-12
ASSAY_DETAILS: Anti-proliferative activity against human BT-12 cells assessed as inhibition cell growth incubated for 72 hrs in presence of doxorubicin by MTT-based Chou-Talalay method
Assay type: functional
TEST_CONTEXT: BT-12, 72 h
MEASUREMENT_NAME: IC50 (nM)
Numbers only, in nM.

Using the record for CCn1cc(-c2cccc(C(F)(F)F)c2)c2sc(C(=N)NC3CCS(=O)(=O)CC3)cc2c1=O , report its IC50.
940
